Numbers sourced from ChEMBL document CHEMBL3988442.

# assay system: Tyrosyl-tRNA synthetase, putative (Trypanosoma cruzi (strain CL Brener))
# assay details: Trypanosoma cruzi tyrosyl tRNA synthetase (TcYRS) _High Tyrosine SOP; note: in the data most compounds retested in dose-response had high values
# Type: functional
# Set-up: scale not given: direction of the effect not stated beside the values
# setup conditions: 30 µM
Percent Effect reference
measured parameter: Percent Effect (%)

compound | observed
Cc1nc(C)n(CC2CN(CCc3ccncc3)CCO2)n1 (configuration not stated) | 4.3
CCSCCC(=O)Nc1ncn(Cc2cccnc2)n1 | 4.92
CN1C(=O)CC(c2cnn(C)c2)C12CCN(C(=O)C1CC=CC1)CC2 (configuration not stated) | -1.08
O=C(Nc1nccs1)N(CCO)Cc1ccsc1 | 8.33
CCc1ccc(NS(=O)(=O)CC2=NC(=O)n3cccc3C2=O)cc1 | -8.47
Cc1nnc(CN2CCC(N(C)Cc3nnc(C4CC4)n3C)C2)o1 (configuration not stated) | 4.43
Cn1cc(N2CCC(NC(=O)c3c(F)cccc3F)C2=O)cn1 (configuration not stated) | 0
Cc1nc(Cn2nc(C3CCNCC3)n(Cc3ccccc3)c2=O)no1 | 3.7
O=C1NCC2(CCCN(CCc3ccccc3)C2)Oc2ccccc21 (configuration not stated) | -1.07
Cc1oc(C(=O)O)cc1S(=O)(=O)Nc1cc(Cl)ccc1F | 3.88
Cc1cc(C)n(CC2CCCN2C(=O)CCCNc2ncccn2)n1 (configuration not stated) | 6.37
Cc1nn(C)cc1C(=O)N1C[C@H]2CC[C@@H]1CN(S(=O)(=O)N(C)C)C2 | 0.546

---

# assay system: Tyrosyl-tRNA synthetase, putative (Trypanosoma cruzi (strain CL Brener))
# Sequence (whole entry): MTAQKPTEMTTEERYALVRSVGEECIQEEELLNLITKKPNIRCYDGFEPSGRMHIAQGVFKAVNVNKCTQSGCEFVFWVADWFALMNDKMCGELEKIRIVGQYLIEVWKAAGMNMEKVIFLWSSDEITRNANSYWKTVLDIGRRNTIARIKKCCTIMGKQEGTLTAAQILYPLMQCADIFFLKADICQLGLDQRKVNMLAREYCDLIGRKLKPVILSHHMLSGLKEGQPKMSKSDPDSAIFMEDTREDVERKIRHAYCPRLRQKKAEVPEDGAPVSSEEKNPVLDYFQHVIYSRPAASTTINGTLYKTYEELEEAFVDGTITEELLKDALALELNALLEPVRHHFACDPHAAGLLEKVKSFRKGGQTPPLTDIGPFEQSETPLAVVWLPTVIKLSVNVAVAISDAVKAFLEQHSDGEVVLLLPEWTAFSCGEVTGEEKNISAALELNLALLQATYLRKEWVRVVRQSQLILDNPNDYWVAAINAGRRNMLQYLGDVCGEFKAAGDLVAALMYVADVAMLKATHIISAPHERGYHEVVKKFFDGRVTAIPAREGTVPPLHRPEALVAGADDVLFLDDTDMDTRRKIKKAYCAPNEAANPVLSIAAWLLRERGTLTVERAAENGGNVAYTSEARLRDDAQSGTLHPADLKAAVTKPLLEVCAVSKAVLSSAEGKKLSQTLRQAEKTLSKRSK
# assay details: Trypanosoma cruzi tyrosyl tRNA synthetase (TcYRS) SOP
# Type: functional
# Parameters: scale not given: direction of the effect not stated beside the values
# setup conditions: 30 µM

compound | readout unit | Percent Effect
CCc1ncc(C(=O)NCCNC(=O)Cc2ccc(F)cc2)s1 | % | 16.1
O=C(CN1CC(n2cccn2)C1)NCCc1c[nH]c2ccccc12 | % | 11
Cc1nc(C)n(CC2CCCN2Cc2nc(-c3cccs3)no2)n1 (stereo unspecified) | % | 12.2
CC(C)C(C(=O)N1CCC(Nc2cccnn2)CC1)n1cncn1 (stereo unspecified) | % | -1.24
COc1ccc(-c2nc(CN3CC(n4nc(C)cc4C)C3)no2)cc1 | % | 1.24
O=C(NCCCN1CCOCC1)c1cc(-c2ccco2)[nH]n1 | % | 28.4

---

Item-by-item account of Percent Effect
# assay system: AMP-activated protein kinase, AMPK (Homo sapiens) (UniProt P54646+O43741+P54619+Q9UGJ0+Q9Y478+Q13131+Q9UGI9)
# assay details: AMP-dependent Kinase enzyme assay. An in vitro enzyme assay that detects ADP turnover that is directly proportional to AMPK activity. This uses naive AMPK that is activated during the assay with MK-8722
# Format: functional
# Set-up: scale not given: direction of the effect not stated beside the values
# setup conditions: 30 µM

compound | Percent Effect, %
CCOCC1CN(C(=O)c2ccncc2)Cc2nn(C)cc21 (centres undefined) | -4.74
CC(=O)Nc1nc(C2CCN(C(=O)c3cccnc3)CC2)cs1 | 0.538
Cc1noc2nc(C3CCN(CC4=CCCOC4)CC3)cc(C(F)F)c12 | 13.4
Cc1c[nH]cc1C(=O)N1CCN(Cc2nc(C(C)C)no2)CC1 | -5.14
Cc1csc(CNC(=O)NC2CCN(c3ncccn3)CC2)n1 | -4.87
CN(Cc1ccc(F)cc1)C(=O)CN1CCOC(Cn2cncn2)C1 (centres undefined) | -2.68
Fc1ccc(OCCCN2CCOC(Cn3cncn3)C2)cc1 (centres undefined) | 6.98
O=C(CSc1ccccc1Cl)NS(=O)(=O)c1ccc2c(c1)OCCO2 | 27.8
COc1c(CNCCNC(=O)c2ccco2)c(C)nn1C | -4.46
c1ccc(COC2CCN(c3cncc(-n4cccn4)n3)CC2)cc1 | -5.76
COc1ccc(C2=CCN(C(=O)CN(C)CC(C)C#N)CC2)cc1 (centres undefined) | -4.45
CC(CN1CCOCC1)NC(=O)N(C)Cc1ccc(Cl)s1 (centres undefined) | 2.51
CCOc1ccc(-n2nnc(C(=O)O)c2-c2ccccn2)cc1 | 4.82
CCN(CC)CCNC(=O)c1nn(CC)cc1Cl | -10.1
CC(C)(C)OC(=O)N1CCCc2ccc(NCc3ncc[nH]3)cc21 | 1.02
O=C(NCc1ccco1)c1nn(C2CCS(=O)(=O)C2)c2c1CCCC2 (centres undefined) | 7.28
Cc1nc(CCNC(=O)C2CC(=O)N(C(C)(C)C)C2)sc1C (centres undefined) | -1.25
CN1CCN(Cc2cscn2)CC(C(=O)N(C)C)C1 (centres undefined) | -6.4
CN(Cc1csc(-c2cccs2)n1)C(=O)CCn1ccccc1=O | -1.99
OCC1CCCN1c1cc(N2CCc3ccccc3C2)ncn1 (centres undefined) | -4.03
CC(NC(=O)NCCCn1cccn1)c1ccc2c(c1)NC(=O)CO2 (centres undefined) | -6.75
CN1CCN(Cc2nnc(C3CCN(CC4CC4)CC3)n2C)CC1 | 4.92
COc1ccccc1CNC(=O)N1CCCC(NS(C)(=O)=O)C1 (centres undefined) | -5.52
COc1ccc(C2(CNC(C)c3nnc(C)o3)CCCCC2)cc1 (centres undefined) | -8.86

---

# assay system: AMP-activated protein kinase, AMPK (Homo sapiens) (UniProt P54646+O43741+P54619+Q9UGJ0+Q9Y478+Q13131+Q9UGI9)
# assay details: AMP-dependent Kinase enzyme assay. An in vitro enzyme assay that detects ADP turnover that is directly proportional to AMPK activity. This uses naive AMPK that is activated during the assay with MK-8722
# Format: functional
# Parameters: scale not given: direction of the effect not stated beside the values
# setup conditions: 30 µM
Reported values of Percent Effect for individual entries

compound | Percent Effect, %
CCn1cc(CN(C)S(=O)(=O)c2ccc(NC(C)=O)cc2)cn1 | 5.54
Cn1ncc2c(=O)[nH]c(CN3CCCC3c3cccs3)nc21 (configuration not stated) | -1.76
CN1CCCC1CNC(=O)CCCOc1ccc(F)cc1 (configuration not stated) | 7.48
CN(C)C(=O)CS(=O)(=O)Cc1cc(Cl)c2c(c1)OCO2 | -1.27
CC(C)COC(C)C(=O)N1CCN(S(C)(=O)=O)CC1 (configuration not stated) | -1.38
CC1CCCN(CCNC(=O)c2cncnc2C(C)C)C1 (configuration not stated) | -1.93
CN1CCN(C(=O)Cc2cccc(F)c2)Cc2cccnc21 | -0.44
COCC(=O)NCc1cccc(Br)c1 | -5.98
CCc1noc(C(C)N2CCN(Cc3ncc(C(C)(C)C)o3)CC2)n1 (configuration not stated) | -4.2
CC(=O)N1CCCN(C(=O)c2cnc3n[nH]c(C)c3c2)CC1 | -3.49
CN1CC(=O)N(c2cnn(C)c2)CC12CCN(Cc1ccccc1)C2 (configuration not stated) | -2.44
Cc1occc1C(=O)N1CCO[C@H]2[C@@H](Oc3ccccn3)CC[C@@H]21 | 5.36
c1ccc(-c2noc(CN3CCOC(Cn4cccn4)C3)n2)nc1 (configuration not stated) | 4.78
CN(C)Cc1nnc(C2CCN(C(=O)CCc3cccs3)CC2)n1C | -7.22
O=S1(=O)c2ccccc2C2(CCN(Cc3ccccc3)C2)N1CC1CC1 (configuration not stated) | 12.2
CN(Cc1cccnc1)C1CC2(CCN(c3ccccn3)CC2)C1 | 11
CCc1noc(C(C)N2CCN(Cc3nc(C)c(C)o3)CC2)n1 (configuration not stated) | 6.83
Cc1cccc(CN2CCC3(CCCN(C(=O)NC4CC4)C3)C2=O)n1 (configuration not stated) | -9.14
COCCN1CC[C@H](O)[C@@H]1Cc1ccccc1 | -0.98
Cc1cnn(C2CCCN(C(=O)CCCNc3ncccn3)C2)c1 (configuration not stated) | -4.82
CCCC(NC(=O)c1cc(C)n(C2CC2)c1C)c1nnn[nH]1 (configuration not stated) | -2.47
Cc1nc(CN2CCCC(N(C)CCc3ccncc3)C2)no1 (configuration not stated) | -12.8
CC(C)C(=O)NCC(=O)N(C)C1CCCN(C2Cc3ccccc3C2)C1 (configuration not stated) | -4.7
Cc1cnc2n(c1=O)CC(C(=O)Nc1cccc3cccnc13)CS2 (configuration not stated) | -76.9
CC(C)C(Sc1nnnn1-c1ccccc1)C(=O)NCc1cccnc1 (configuration not stated) | 1.33
CN1CC(=O)N(c2cccc(F)c2)CC12CCN(S(C)(=O)=O)C2 (configuration not stated) | 2.57
CCc1ccc(CN2C[C@@H]3OCCN(c4ccnc(N(C)C)n4)[C@@H]3C2)o1 | -0.72
Cc1nc(N2CCOCC2)nc2c1CCN(Cc1cccnc1)CC2 | 0.954
Cc1cc(CN(C)Cc2cc3c(cc2OC(F)F)OCO3)on1 | 1.74
CCn1cc(N2Cc3nc(N4CCN(C)CC4)ncc3C2=O)cn1 | 4.85
Cc1cccc(CNC(CN2CCN(C)CC2)c2ccccc2)c1 (configuration not stated) | -13.3
O=c1cc(Cn2ccnc2)nc2n1CCCN(Cc1ccsc1)C2 | 0.478
CS(=O)(=O)N1CCc2c(cccc2NC(=O)CC(F)(F)F)C1 | 4.53
COc1ccccc1CC(=O)N1CCC(NCc2c[nH]nc2C)CC1 | -1.94
COCCC(=O)N1CCN(C)c2ncccc2C1 | 1
NC(=O)C(CNC(=O)Cc1ccc(F)cc1)Cc1ccc(F)cc1 (configuration not stated) | -46.9
CN1CCN(C(=O)[C@@H]2CCO[C@@H]3CCN(c4ncccn4)C[C@@H]32)CC1 | 0.0211
CCc1cnc(CN(C)C2CCN(CCc3cccs3)C2)o1 (configuration not stated) | -3.51
Cc1noc([C@@H]2C[C@H]3OCC[C@H]3N(S(C)(=O)=O)C2)n1 | -9.13
O=C(NC(CO)CO)c1coc(COc2cccc(F)c2)n1 | 1.42
CN(C)C(=O)CN1CCC2(CCCN(Cc3cccn3C)C2)C1=O (configuration not stated) | 0.926
CC(C)N1CC(C(=O)NCCOc2ccc3c(c2)OCO3)CC1=O (configuration not stated) | -0.48
O=C1N(Cc2cccc(F)c2F)CCCC1(O)CN1CCCOCC1 (configuration not stated) | -3.73
CNC(=O)[C@H]1C[C@@H]2CN(C(=O)c3cscn3)C[C@@H]2N1S(C)(=O)=O | 0.103
COC1CCN(C(=O)c2c(Cl)c3ccccc3n2C)CC1 | 0.805
COc1ccc(Br)c(C(=O)NCC2CCN(S(=O)(=O)C3CC3)CC2)c1 | -7.39
O=C(O)[C@@H]1CN(C(=O)c2ccc3[nH]nnc3c2)C[C@H]1c1cccc(F)c1 | -5.72
